fold change (FC) by entry:
# Tested on: Bacillus subtilis
# PROTOCOL TEXT: Antibacterial activity against Bacillus subtilis relative to daptomycin
# Assay type: functional
I only need the number, thanks.

Some entries whose results are on file:
Consider the molecule CCCCCCCCCC(=O)N[C@@H](Cc1c[nH]c2ccccc12)C(=O)N[C@H](CC(N)=O)C(=O)N[C@@H](CC(=O)O)C(=O)N[C@@H]1C(=O)NCC(=O)N[C@@H](CCCN)C(=O)N[C@@H](CC(=O)O)C(=O)N[C@H](CC(N)=O)C(=O)N[C@@H](CC(=O)O)C(=O)NCC(=O)N[C@H](CO)C(=O)N[C@@H]([C@H](C)CC(=O)O)C(=O)N[C@@H]([C@@H](C)CC)C(=O)O[C@@H]1C and give its recorded fold change (FC). 32

Consider the molecule CCCCCCCCCC(=O)N[C@@H](Cc1c[nH]c2ccccc12)C(=O)N[C@H](CC(N)=O)C(=O)N[C@@H](CC(=O)O)C(=O)N[C@@H]1C(=O)NCC(=O)N[C@@H](CCCN)C(=O)N[C@@H](CC(=O)O)C(=O)N[C@H](C)C(=O)N[C@@H](CC(=O)O)C(=O)NCC(=O)N[C@H](CC(N)=O)C(=O)N[C@@H](CCC(=O)O)C(=O)N[C@@H](CC(=O)c2ccccc2N)C(=O)O[C@@H]1C and give its recorded fold change (FC). 64

Consider the molecule CCCCCCCCCC(=O)N[C@@H](Cc1c[nH]c2ccccc12)C(=O)N[C@H](CC(N)=O)C(=O)N[C@@H](CC(=O)O)C(=O)N[C@@H]1C(=O)NCC(=O)N[C@@H](CCCN)C(=O)N[C@@H](CC(=O)O)C(=O)N[C@H](CC(N)=O)C(=O)N[C@@H](CC(=O)O)C(=O)NCC(=O)N[C@H](CO)C(=O)N[C@@H](CCC(=O)O)C(=O)N[C@@H](CC(=O)c2ccccc2N)C(=O)O[C@@H]1C and give its recorded fold change (FC). 256

***
Consider the molecule CCCCCCCCCC(=O)N[C@@H](Cc1c[nH]c2ccccc12)C(=O)N[C@H](CC(N)=O)C(=O)N[C@@H](CC(=O)O)C(=O)N[C@@H]1C(=O)NCC(=O)N[C@@H](CCCN)C(=O)N[C@@H](CC(=O)O)C(=O)N[C@H](C)C(=O)N[C@@H](CC(=O)O)C(=O)NCC(=O)N[C@H](CC(N)=O)C(=O)N[C@@H]([C@H](C)CC(=O)O)C(=O)N[C@@H]([C@@H](C)CC)C(=O)O[C@@H]1C and give its recorded fold change (FC). 8

* * *

# Test system: Bacillus subtilis
# PROTOCOL TEXT: Antibacterial activity against Bacillus subtilis relative to daptomycin
# Assay type: functional
QUANTITY MEASURED: fold change (FC)

Consider the compound CCCCCCCCCC(=O)N[C@@H](Cc1c[nH]c2ccccc12)C(=O)N[C@H](CC(N)=O)C(=O)N[C@@H](CC(=O)O)C(=O)N[C@@H]1C(=O)NCC(=O)N[C@@H](CCCN)C(=O)N[C@@H](CC(=O)O)C(=O)N[C@H](CC(N)=O)C(=O)N[C@@H](CC(=O)O)C(=O)NCC(=O)N[C@H](CO)C(=O)N[C@@H]([C@H](C)CC(=O)O)C(=O)N[C@@H](CC(=O)c2ccccc2N)C(=O)O[C@@H]1C and give its recorded fold change (FC). 16

* * *

# PROTOCOL TEXT: Protein binding in human plasma by UV/HPLC analysis
# Format: ADME, cell-free
# CONDITION INFO: read-out: PPB (converted)
QUANTITY MEASURED: fraction unbound
I only need the number, thanks.

Consider the compound CCCCCCCCCC(=O)N[C@@H](Cc1c[nH]c2ccccc12)C(=O)N[C@H](CC(N)=O)C(=O)N[C@@H](CC(=O)O)C(=O)N[C@@H]1C(=O)NCC(=O)N[C@@H](CCCN)C(=O)N[C@@H](CC(=O)O)C(=O)N[C@H](C)C(=O)N[C@@H](CC(=O)O)C(=O)NCC(=O)N[C@H](CO)C(=O)N[C@@H]([C@H](C)CC(=O)O)C(=O)N[C@@H](CC(=O)c2ccccc2N)C(=O)O[C@@H]1C [DAPTOMYCIN] and give its recorded fraction unbound. 0.1
